Reported kon values follow for various binders
# target: SARS-CoV-2 spike S1 protein (SARS-CoV-2, UniProt P0DTC2 16-685)
Write the numeric value and follow it with the unit.

INSERT INTO measurements (binder, recorded_measurement) VALUES
  ('AB-009281 (antibody, V domains shown) VH: EVQLVETGGGLIQPGGSLRLSCAASGFTVSSNYMSWVRQAPGKGLEWVSVIYSGGSTYYADSVKGRFTISRDNSKNTLYLQMNSLRAEDTAVYYCARDLYYYGMDVWGQGTTVTVSS VL: DIQLTQSPSFLSASVGDRVTITCRASQGISSYLAWYQQKPGKAPKLLIYAASTLQSGVPSRFSGSGSGTEFTLTISSLQPEDFATYYCQQLNSYPTFGQGTKVEIK', '81200 M⁻¹ s⁻¹');

Using the record for AB-009346 (antibody, V domains shown) VH: EVQLVESGGGVVRPGGSLRLSCAASGFTFDDYGMSWVRQAPGKGLEWVSGINWNGGSTGYADSVKGRFTISRDNAKNSLYLQMNSLRAEDTALYYCARWPLLGISGYYHYYMDVWGKGTTVTVSS VL: QSALTQPRSVSGSPGQSVTISCTGTSSDVGGYNYVSWYQQHPGKAPKLMIYDVSKRPSGVPDRFSGSKSGNTASLTISGLQAEDEADYYCCSYAGSYTLLFGGGTKLIVL , report its kon. 41700 M⁻¹ s⁻¹

Using the record for AB-009271 (antibody, V domains shown) VH: EVQLVESGGGLIQPGGSLRLSCAASGFIVSSNYMSWVRQAPGKGLEWVSVIYSGGSTYYADSVKGRFTISRDNSKNTLYLQMNSLRAEDTAVYYCARDYGDFYFDYWGQGTLVTVSS VL: EIVMTQSPATLSVSPGERATLSCRASQSVSSNLAWYQQKPGQAPRLLIYGASTRATGIPARFSGSGSGTEFTLTISSLQSEDFAVYYCQQYYNWPRTFGQGTKVEIK , report its kon. 75900 M⁻¹ s⁻¹

Using the record for AB-009769 (antibody, V domains shown) VH: EVQLVESGGGLVQPGGSLRLSCAASGFTFSSYWMSWVRQAPGKGLEWVANIKQDGSEKYYVDSVKGRFTISRDNAKNSLYLQMNSLRAEDTAVYYCARSPEVLWFGDPVLDNWFDPWGQGTLVTVSS VL: SYELTQPPSVSVSPGQTARITCSGDALPKQYAYWYQQKPGQAPVLVIYKDSERPSGIPERFSGSSSGTTVTLTISGVQAEDEADYYCQSADSSGTYPVVFGGGTKLTVL , report its kon. 18400 M⁻¹ s⁻¹

Ref: patent US20240327505A1
